# Test system: human premyeloblast leukemia cells (HL-60)
# assay notes: Proliferation-suppression rate of HL-60 cells (Coulter counter, 4 days cultivation)
# Assay type: cell-based
# reported conditions: 96 h, Concn. 0.1 ng/mL, HL-60, 4 days
# Method: An HL-60 cell fluid adjusted to a concentration of 5 x 10^4 cells/ml was incorporated with each of the agents to be tested and cultivated in a carbon dioxide incubator at 37°C for 4 days. After the cultivation, the number of cells was measured by means of a Coulter counter. The percentage of the number thus measured relative to the number of cells in an untreated group was calculated, from which the proliferation-suppression rate was obtained.
measured endpoint: inhibition at 0.1 ng/mL (%)
Give bare numbers, in %.

molecule	inhibition at 0.1 ng/mL [%]
C=C1/C(=C\C=C2/CCC[C@]3(C)[C@@H]([C@H](C)C[C@H](O)CC(O)(C(F)(F)F)C(F)(F)F)CC[C@@H]23)C[C@@H](O)C[C@@H]1O [Compound 28b]	22.8
C=C1/C(=C\C=C2/CCC[C@]3(C)[C@@H]([C@H](C)CCCC(C)(C)O)CC[C@@H]23)C[C@@H](O)C[C@@H]1O [1α,25-(OH)2D3, 1α,25-Dihydroxyvitamin D3, reference compound]	6.2
C=C1/C(=C\C=C2/CCC[C@]3(C)[C@@H]([C@H](C)CC[C@@H](O)C(O)(C(F)(F)F)C(F)(F)F)CC[C@@H]23)C[C@@H](O)C[C@@H]1O	50.2
C=C1/C(=C\C=C2/CCC[C@]3(C)[C@@H]([C@H](C)C[C@@H](O)CC(O)(C(F)(F)F)C(F)(F)F)CC[C@@H]23)C[C@@H](O)C[C@@H]1O [Compound 28a]	19.8
C=C1/C(=C\C=C2/CCC[C@]3(C)[C@@H]([C@H](C)CC[C@H](O)C(O)(C(F)(F)F)C(F)(F)F)CC[C@@H]23)C[C@@H](O)C[C@@H]1O	30.7

Could you now look at the following molecule, please?
Fill in the recorded inhibition at 0.1 ng/mL for this molecule, with human premyeloblast leukemia cells (HL-60) as test system: C=C1/C(=C\C=C2/CCC[C@]3(C)[C@@H]([C@H](C)CCC(=O)C(O)(C(F)(F)F)C(F)(F)F)CC[C@@H]23)C[C@@H](O)C[C@@H]1O
45.9

---

Would you mind telling me the reported NBT reduction rate of each entry?
# Tested on: human premyeloblast leukemia cells (HL-60)
# assay notes: NBT reduction (differentiation of HL-60 cells into macrophages)
# Type: cell-based
# reported conditions: Concn. 1 µg/ml, HL-60, 4 days; control 0.5
Numbers only, in %.

Sample records with NBT reduction rate:
compound	measured
C=C1/C(=C\C=C2/CCC[C@]3(C)[C@@H]([C@H](C)C[C@H](O)CC(O)(C(F)(F)F)C(F)(F)F)CC[C@@H]23)C[C@@H](O)C[C@@H]1O [Compound 28b]	60.0
C=C1/C(=C\C=C2/CCC[C@]3(C)[C@@H]([C@H](C)CCC(=O)C(O)(C(F)(F)F)C(F)(F)F)CC[C@@H]23)C[C@@H](O)C[C@@H]1O	46.0
C=C1/C(=C\C=C2/CCC[C@]3(C)[C@@H]([C@H](C)CCCC(C)(C)O)CC[C@@H]23)C[C@@H](O)C[C@@H]1O [1α,25-(OH)2D3, 1α,25-Dihydroxyvitamin D3, reference compound]	16.5
C=C1/C(=C\C=C2/CCC[C@]3(C)[C@@H]([C@H](C)CC[C@@H](O)C(O)(C(F)(F)F)C(F)(F)F)CC[C@@H]23)C[C@@H](O)C[C@@H]1O	79.5

Give NBT reduction rate for each listed item.
1. C=C1/C(=C\C=C2/CCC[C@]3(C)[C@@H]([C@H](C)C[C@@H](O)CC(O)(C(F)(F)F)C(F)(F)F)CC[C@@H]23)C[C@@H](O)C[C@@H]1O [Compound 28a]
2. C=C1/C(=C\C=C2/CCC[C@]3(C)[C@@H]([C@H](C)CC[C@H](O)C(O)(C(F)(F)F)C(F)(F)F)CC[C@@H]23)C[C@@H](O)C[C@@H]1O

1. 60.5
2. 55.0

Where do the numbers come from? From patent EP0250755A2.
